System: 817829-284-R-J1-PDC complex spheroid viability
Assay: Anticancer human tumor 817829-284-R-J1-PDC patient-derived colon adenocarcinoma cell line growth inhibition [POLQ]
Conditions: curve of first compound; second compound 3.16 µM
Method: Multicellular complex tumor spheroid response to Polymerase (POL) inhibitors (novobiocin, ART-558, RP6685) in combination with a variety of drugs and investigational agents in selected tumor cell lines The POL inhibitors (novobiocin, ART-558, and RP6685) were evaluated both individually and in combination with standard of care and investigational anticancer small molecules within a complex spheroid model of solid tumors. . […]
MEASURED_ATTRIBUTE: pIC50
Friendly reminder that pIC50 comes from taking -log10 of the concentration in mol/L.

Worked cases, pIC50 given:
COMPOUND | pIC50
Cn1ncnc1[C@H]1c2n[nH]c(=O)c3cc(F)cc(c23)N[C@@H]1c1ccc(F)cc1 + Nc1ccc(C#CCN(C(=O)Cc2ncc(C(F)(F)F)cc2C(F)(F)F)c2ccc(F)cc2)nn1 | 7.31
C=CC(=O)N1CCN(c2nc(=O)n(-c3c(C)ccnc3C(C)C)c3nc(-c4c(O)cccc4F)c(F)cc23)C(C)C1 (stereo not given) + Nc1ccc(C#CCN(C(=O)Cc2ncc(C(F)(F)F)cc2C(F)(F)F)c2ccc(F)cc2)nn1 | 5.01

# input for lookup
Q: What does the record list as pIC50 for O=c1[nH]cc(F)c(=O)[nH]1 + Cc1cccc(N(C)C(=O)C2C(O)CCN2c2nc(C)cc(C(F)(F)F)c2C#N)c1 ?
Ans: 5.44

* * *

system: 817829-284-R-J1-PDC complex spheroid viability; experiment: Anticancer human tumor 817829-284-R-J1-PDC cell line growth inhibition [POLQ]; settings: second compound 10 µM; first compound 0.316 µM; stronger effect = lower value;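 further: spheroids exposed to compounds for 7 days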;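 on viability, T/C: 100% = DMSO vehicle-treated spheroids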
Catalogue of viability, T/C values
Respond with the bare value in %.

COMPOUND | UNIT_NAME | viability, T/C
CC(C)n1c(=O)n(C)c2cnc3cc(F)c(-c4ccc(OCCCN5CCCCC5)nc4)cc3c21 + Cc1cccc(N(C)C(=O)C2C(O)CCN2c2nc(C)cc(C(F)(F)F)c2C#N)c1 | % | 74
COc1cc(C2c3cc4c(cc3C(OC3OC5COC(C)OC5C(O)C3O)C3COC(=O)C23)OCO4)cc(OC)c1O (stereo not given) + Nc1ccc(C#CCN(C(=O)Cc2ncc(C(F)(F)F)cc2C(F)(F)F)c2ccc(F)cc2)nn1 | % | 18.8
CCCS(=O)(=O)Nc1ccc(F)c(C(=O)c2c[nH]c3ncc(-c4ccc(Cl)cc4)cc23)c1F + COC1C(OC(N)=O)C(O)C(Oc2ccc3c(O)c(NC(=O)c4ccc(O)c(CC=C(C)C)c4)c(=O)oc3c2C)OC1(C)C | % | 62.1
CNCc1ccc(-c2[nH]c3cc(F)cc4c3c2CCNC4=O)cc1 + Nc1ccc(C#CCN(C(=O)Cc2ncc(C(F)(F)F)cc2C(F)(F)F)c2ccc(F)cc2)nn1 | % | 76.9

Q: Look at this compound and give its reported viability, T/C. O=C(c1cc(Cc2n[nH]c(=O)c3ccccc23)ccc1F)N1CCN(C(=O)C2CC2)CC1 + Cc1cccc(N(C)C(=O)C2C(O)CCN2c2nc(C)cc(C(F)(F)F)c2C#N)c1
Ans: 104

* * *

tested on: 817829-284-R-J1-PDC complex spheroid viability; test: Anticancer human tumor 817829-284-R-J1-PDC cell line growth inhibition [POLQ]; details: second compound 0.1 µM; first compound 0.316 µM; active = viability on the fitted dose curve at most 10% of control; inactive = the rest;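 further: spheroids exposed to compounds for 7 days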
// allowed return values: YES = active, NO = inactive

COMPOUND | CAT
CC1COCCN1c1cc(-c2ccnn2C)c2ccnc(-c3ccn[nH]3)c2n1 (stereo unspecified) + Cc1cccc(N(C)C(=O)C2C(O)CCN2c2nc(C)cc(C(F)(F)F)c2C#N)c1 | YES

Q: Could you kindly confirm the outcome this assay logged for COc1cc2cc(C(=O)CCC(=O)O)sc2cc1OC + COC1C(OC(N)=O)C(O)C(Oc2ccc3c(O)c(NC(=O)c4ccc(O)c(CC=C(C)C)c4)c(=O)oc3c2C)OC1(C)C ?
Ans: NO

Q: Outcome logged for COc1cccc(OCCCN)c1-c1cc(Nc2cnc(C#N)cn2)n[nH]1 + Cc1cccc(N(C)C(=O)C2C(O)CCN2c2nc(C)cc(C(F)(F)F)c2C#N)c1 in this assay:
Ans: YES

* * *

tested on: 817829-284-R-J1-PDC complex spheroid viability; experiment: Anticancer human tumor 817829-284-R-J1-PDC cell line growth inhibition [POLQ]; settings: curve of first compound; second compound 0.1 µM;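 further: spheroids exposed to compounds for 7 days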
Below: a set of entries, each annotated with reported pIC50.
Note on units: pIC50 is unitless, being -log10 of a concentration expressed in mol/L.

Worked cases, answers included:
COMPOUND | MEASURED_ATTRIBUTE | VALUE
CC[C@@]1(O)C(=O)OCc2c1cc1n(c2=O)Cc2cc3c(CN(C)C)c(O)ccc3nc2-1 + COC1C(OC(N)=O)C(O)C(Oc2ccc3c(O)c(NC(=O)c4ccc(O)c(CC=C(C)C)c4)c(=O)oc3c2C)OC1(C)C | pIC50 | 8.21
O=C(c1cc(Cc2n[nH]c(=O)c3ccccc23)ccc1F)N1CCN(C(=O)C2CC2)CC1 + COC1C(OC(N)=O)C(O)C(Oc2ccc3c(O)c(NC(=O)c4ccc(O)c(CC=C(C)C)c4)c(=O)oc3c2C)OC1(C)C | pIC50 | 5.34
Cn1ncnc1[C@H]1c2n[nH]c(=O)c3cc(F)cc(c23)N[C@@H]1c1ccc(F)cc1 + Nc1ccc(C#CCN(C(=O)Cc2ncc(C(F)(F)F)cc2C(F)(F)F)c2ccc(F)cc2)nn1 | pIC50 | 7.36
CC1COCCN1c1cc(C2(S(C)(=N)=O)CC2)nc(-c2ccnc3[nH]ccc23)n1 (stereo unspecified) + Cc1cccc(N(C)C(=O)C2C(O)CCN2c2nc(C)cc(C(F)(F)F)c2C#N)c1 | pIC50 | 6.39
COc1ccc([C@@H](O)c2cc(-c3ncnc4cc(N5CCOCC5)ccc34)c(F)cc2Cl)nn1 + Cc1cccc(N(C)C(=O)C2C(O)CCN2c2nc(C)cc(C(F)(F)F)c2C#N)c1 | pIC50 | 6.14

Q: # pIC50 lookup, item O=C(Nc1ccc(O)c(NS(=O)(=O)c2ccc(F)cc2)c1)c1ccc(-c2ccccc2)cc1 + Cc1cccc(N(C)C(=O)C2C(O)CCN2c2nc(C)cc(C(F)(F)F)c2C#N)c1
Ans: 5.12

Q: pIC50 for O=C(Nc1ccc(O)c(NS(=O)(=O)c2ccc(F)cc2)c1)c1ccc(-c2ccccc2)cc1 + COC1C(OC(N)=O)C(O)C(Oc2ccc3c(O)c(NC(=O)c4ccc(O)c(CC=C(C)C)c4)c(=O)oc3c2C)OC1(C)C ?
Ans: 5.15

Q: Requested read-out: pIC50. Entry: CC(C)n1c(=O)n(C)c2cnc3cc(F)c(-c4ccc(OCCCN5CCCCC5)nc4)cc3c21 + Nc1ccc(C#CCN(C(=O)Cc2ncc(C(F)(F)F)cc2C(F)(F)F)c2ccc(F)cc2)nn1
Ans: 5.11

* * *

system: 817829-284-R-J1-PDC complex spheroid viability; assay: Anticancer human tumor 817829-284-R-J1-PDC cell line growth inhibition [POLQ]; details: second compound 1 µM; first compound 0.316 µM; active = viability on the fitted dose curve at most 10% of control; inactive = the rest;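 further: spheroids exposed to compounds for 7 days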
The categories you may choose from are y = active, n = inactive

Consider the following illustrative entries.
MOLECULE | CAT
COc1ccc([C@@H](O)c2cc(-c3ncnc4cc(N5CCOCC5)ccc34)c(F)cc2Cl)nn1 + Nc1ccc(C#CCN(C(=O)Cc2ncc(C(F)(F)F)cc2C(F)(F)F)c2ccc(F)cc2)nn1 | n
COc1cc2cc(C(=O)CCC(=O)O)sc2cc1OC + COC1C(OC(N)=O)C(O)C(Oc2ccc3c(O)c(NC(=O)c4ccc(O)c(CC=C(C)C)c4)c(=O)oc3c2C)OC1(C)C | n
C#Cc1c(F)ccc2cc(O)cc(-c3ncc4c(N5CC6CCC(C5)N6)nc(OCC56CCCN5CC(F)C6)nc4c3F)c12 (configuration not stated) + Nc1ccc(C#CCN(C(=O)Cc2ncc(C(F)(F)F)cc2C(F)(F)F)c2ccc(F)cc2)nn1 | n
O=c1[nH]cc(F)c(=O)[nH]1 + Cc1cccc(N(C)C(=O)C2C(O)CCN2c2nc(C)cc(C(F)(F)F)c2C#N)c1 | n
C#Cc1c(F)ccc2cc(O)cc(-c3ncc4c(N5CC6CCC(C5)N6)nc(OCC56CCCN5CC(F)C6)nc4c3F)c12 (configuration not stated) + Cc1cccc(N(C)C(=O)C2C(O)CCN2c2nc(C)cc(C(F)(F)F)c2C#N)c1 | n
CCc1c2c(nc3ccc(O)cc13)-c1cc3c(c(=O)n1C2)COC(=O)[C@]3(O)CC + Cc1cccc(N(C)C(=O)C2C(O)CCN2c2nc(C)cc(C(F)(F)F)c2C#N)c1 | y

Q: Fill in: this test's call for Nc1ccn(C2OC(CO)C(O)C2(F)F)c(=O)n1 (configuration not stated) + COC1C(OC(N)=O)C(O)C(Oc2ccc3c(O)c(NC(=O)c4ccc(O)c(CC=C(C)C)c4)c(=O)oc3c2C)OC1(C)C is ___
Ans: y

Q: Record lookup: outcome of this test for COc1ccc([C@@H](O)c2cc(-c3ncnc4cc(N5CCOCC5)ccc34)c(F)cc2Cl)nn1 + COC1C(OC(N)=O)C(O)C(Oc2ccc3c(O)c(NC(=O)c4ccc(O)c(CC=C(C)C)c4)c(=O)oc3c2C)OC1(C)C ?
Ans: n

Q: Test call, this molecule: COc1cccc2c1C(=O)c1c(O)c3c(c(O)c1C2=O)CC(O)(C(=O)CO)CC3OC1CC(N)C(O)C(C)O1 (configuration not stated) + COC1C(OC(N)=O)C(O)C(Oc2ccc3c(O)c(NC(=O)c4ccc(O)c(CC=C(C)C)c4)c(=O)oc3c2C)OC1(C)C
Ans: y

Q: Which outcome did this test record for the molecule COc1ccc([C@@H](O)c2cc(-c3ncnc4cc(N5CCOCC5)ccc34)c(F)cc2Cl)nn1 + Cc1cccc(N(C)C(=O)C2C(O)CCN2c2nc(C)cc(C(F)(F)F)c2C#N)c1 ?
Ans: n

Q: For CCc1cc2c(N3CCc4c(cc(Cn5ccnc5)cc4-c4cn(C)nc4C(F)(F)F)C3=O)cc(C)nc2c(OC)n1 + Nc1ccc(C#CCN(C(=O)Cc2ncc(C(F)(F)F)cc2C(F)(F)F)c2ccc(F)cc2)nn1 , what call appears in the results of this test?
Ans: n

Q: Status in this test for CCc1cc2c(N3CCc4c(cc(Cn5ccnc5)cc4-c4cn(C)nc4C(F)(F)F)C3=O)ccnc2c(OC)n1 + Nc1ccc(C#CCN(C(=O)Cc2ncc(C(F)(F)F)cc2C(F)(F)F)c2ccc(F)cc2)nn1 ?
Ans: n

Q: How did this test come out for C=CC(=O)N1CCN(c2nc(=O)n(-c3c(C)ccnc3C(C)C)c3nc(-c4c(O)cccc4F)c(F)cc23)C(C)C1 (configuration not stated) + Cc1cccc(N(C)C(=O)C2C(O)CCN2c2nc(C)cc(C(F)(F)F)c2C#N)c1 ?
Ans: n

Q: Short answer needed: outcome of this test for CC1COCCN1c1cc(C2(S(C)(=N)=O)CC2)nc(-c2ccnc3[nH]ccc23)n1 (configuration not stated) + COC1C(OC(N)=O)C(O)C(Oc2ccc3c(O)c(NC(=O)c4ccc(O)c(CC=C(C)C)c4)c(=O)oc3c2C)OC1(C)C ?
Ans: n

Q: Hello, I am checking results. What call was entered for C=CCn1c(=O)c2cnc(Nc3ccc(N4CCN(C)CC4)cc3)nc2n1-c1cccc(C(C)(C)O)n1 + COC1C(OC(N)=O)C(O)C(Oc2ccc3c(O)c(NC(=O)c4ccc(O)c(CC=C(C)C)c4)c(=O)oc3c2C)OC1(C)C ?
Ans: n

Q: Could you kindly confirm the outcome this assay logged for O=C(c1cc(Cc2n[nH]c(=O)c3ccccc23)ccc1F)N1CCN(C(=O)C2CC2)CC1 + COC1C(OC(N)=O)C(O)C(Oc2ccc3c(O)c(NC(=O)c4ccc(O)c(CC=C(C)C)c4)c(=O)oc3c2C)OC1(C)C ?
Ans: n

Q: Returns: the outcome recorded for O=C(Nc1ccc(O)c(NS(=O)(=O)c2ccc(F)cc2)c1)c1ccc(-c2ccccc2)cc1 + Cc1cccc(N(C)C(=O)C2C(O)CCN2c2nc(C)cc(C(F)(F)F)c2C#N)c1 in this assay.
Ans: n

Q: Hi, sorry to bother you, what did the test record for CNCc1ccc(-c2[nH]c3cc(F)cc4c3c2CCNC4=O)cc1 + Nc1ccc(C#CCN(C(=O)Cc2ncc(C(F)(F)F)cc2C(F)(F)F)c2ccc(F)cc2)nn1 ?
Ans: n

Q: Call for entry C=CCn1c(=O)c2cnc(Nc3ccc(N4CCN(C)CC4)cc3)nc2n1-c1cccc(C(C)(C)O)n1 + Cc1cccc(N(C)C(=O)C2C(O)CCN2c2nc(C)cc(C(F)(F)F)c2C#N)c1 :
Ans: n

Q: Give the logged outcome of this assay for the following molecule: O=C(Nc1ccc(O)c(NS(=O)(=O)c2ccc(F)cc2)c1)c1ccc(-c2ccccc2)cc1 + COC1C(OC(N)=O)C(O)C(Oc2ccc3c(O)c(NC(=O)c4ccc(O)c(CC=C(C)C)c4)c(=O)oc3c2C)OC1(C)C
Ans: n

Q: State the result this test recorded for CC1COCCN1c1cc(C2(S(C)(=N)=O)CC2)nc(-c2ccnc3[nH]ccc23)n1 (configuration not stated) + Nc1ccc(C#CCN(C(=O)Cc2ncc(C(F)(F)F)cc2C(F)(F)F)c2ccc(F)cc2)nn1 .
Ans: n

Q: Could you check what this test reported for CCc1c2c(nc3ccc(O)cc13)-c1cc3c(c(=O)n1C2)COC(=O)[C@]3(O)CC + COC1C(OC(N)=O)C(O)C(Oc2ccc3c(O)c(NC(=O)c4ccc(O)c(CC=C(C)C)c4)c(=O)oc3c2C)OC1(C)C ?
Ans: y

FYI, the data here is from PubChem BioAssay AID1963839.
